Provide the reported combination Emax of each item.
# Test system: HLE (Hepatocellular Carcinoma)
# METHOD NOTES: combination Emax (second highest fraction inhibited in the dose matrix, 72 h); higher = more inhibition; extreme values may be limits of the assay

Consider the compound CN(CCO)CC[C@H](CSc1ccccc1)Nc1ccc(S(=O)(=O)NC(=O)c2ccc(N3CCC([C@@H](O)c4ccccc4-c4ccc(Cl)cc4)CC3)cc2)cc1S(=O)(=O)C(F)(F)F [AZD4320] + C=CCn1c(=O)c2cnc(Nc3ccc(N4CCN(C)CC4)cc3)nc2n1-c1cccc(C(C)(C)O)n1 [AZD1775] (first compound max 1 µM, partner max 1 µM) and give its measured combination Emax.
0.871

Consider the compound CN(CCO)CC[C@H](CSc1ccccc1)Nc1ccc(S(=O)(=O)NC(=O)c2ccc(N3CCC([C@@H](O)c4ccccc4-c4ccc(Cl)cc4)CC3)cc2)cc1S(=O)(=O)C(F)(F)F [AZD4320] + C1CN(CCC1(C(=O)N[C@@H](CCO)C2=CC=C(C=C2)Cl)N)C3=NC=NC4=C3C=CN4 [Capivasertib] (first compound max 1 µM, 7x7, partner max 3 µM) and give its measured combination Emax.
0.274

Consider the compound Cc1cc2ncnn2cc1Nc1ncc2c(n1)n(C1CCOCC1)c(=O)n2C [AZD7648] + C=CCn1c(=O)c2cnc(Nc3ccc(N4CCN(C)CC4)cc3)nc2n1-c1cccc(C(C)(C)O)n1 [AZD1775] (first compound max 10 µM, partner max 1 µM) and give its measured combination Emax.
0.66

Consider the compound Cc1cc2ncnn2cc1Nc1ncc2c(n1)n(C1CCOCC1)c(=O)n2C [AZD7648] + CCN(CCO)CCCOc1ccc2c(Nc3cc(CC(=O)Nc4cccc(F)c4)[nH]n3)ncnc2c1 [AZD2811] (first compound max 10 µM, 7x7, partner max 1 µM) and give its measured combination Emax.
0.433

Consider the compound COc1nnc2ccc(N3CCC(c4ccc(OCCN5CCN(C)C(=O)[C@H]5C)cc4)CC3)nn12 [AZD5153] + C[C@@H]1COCCN1C2=NC(=NC(=C2)C3(CC3)[S@](=N)(=O)C)C4=C5C=CNC5=NC=C4 [AZD6738] (first compound max 1 µM, 7x7, partner max 10 µM) and give its measured combination Emax.
0.689

Consider the compound CCc1c2c(nc3ccc(O)cc13)-c1cc3c(c(=O)n1C2)COC(=O)[C@]3(O)CC [SN-38] + O=C(c1cc(Cc2n[nH]c(=O)c3ccccc23)ccc1F)N1CCN(C(=O)C2CC2)CC1 [Olaparib] (first compound max 0.3 µM, 7x7, partner max 10 µM) and give its measured combination Emax.
0.945

Consider the compound C[C@@H]1COCCN1c1cc(C2([S@](C)(=N)=O)CC2)nc(-c2ccnc3[nH]ccc23)n1 [AZD6738] + Nc1ccn([C@@H]2O[C@H](CO)[C@@H](O)C2(F)F)c(=O)n1 [Gemcitabine] (first compound max 10 µM, 7x7, partner max 0.3 µM) and give its measured combination Emax.
0.834
